The reported numbers originate from PubChem BioAssay.

target-or-test-system: Dickkopf-related protein 1 (Homo sapiens) (UniProt O94907)
Sequence (O94907 whole entry, looked up): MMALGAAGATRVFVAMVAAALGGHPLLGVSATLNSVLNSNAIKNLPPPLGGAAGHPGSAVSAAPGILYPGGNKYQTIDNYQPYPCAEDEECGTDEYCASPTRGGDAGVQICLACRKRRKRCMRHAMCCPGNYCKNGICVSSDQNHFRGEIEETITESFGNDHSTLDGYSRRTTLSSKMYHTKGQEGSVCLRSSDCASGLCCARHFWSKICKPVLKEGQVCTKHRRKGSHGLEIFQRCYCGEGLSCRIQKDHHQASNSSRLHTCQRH
assay-method-text: small molecules binding DKK1 protein – biochemical, small-molecule microarray, 635 nm fluorescence scan, primary screen (AID 1106);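 note: score merges emission near 667 nm with signal to noise over three replicate slides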
assay-context: higher = more signal
measurement-type: composite z-score
Please respond with just the number, no unit label.

Illustrative cases are given below, each with its answer.
CC(C)C(O)C1C=CC2C(=O)NC(=O)C2N1Nc1ccccn1 (centres undefined); -0.0362
CC(C)=CCCC=C(C)C(O)C1C=CC2C(=O)N(c3ccccc3)C(=O)C2N1Nc1ccc(C#N)cc1 (centres undefined); 0.0902
COC(=O)C1(Cc2ccccc2)C=C2C(=C(C)C(=O)C2C)CN1 (centres undefined); -0.424
CC1CC/C=C\[C@H]2OC34C=CCN(c5ccc(Cl)cc5)C(=O)[C@H]3N(CCCCCCO)C(=O)[C@]4(C)C2C(=O)O1 (some centres undefined); -1.43
CN(C)CCCNC(=O)[C@@]1(C)c2ccccc2C(=O)N(Cc2ccc(OC(F)(F)F)cc2)[C@H]1c1ccc(CO)cc1; -0.912
O=C1[C@H]2C=C(I)[C@H](C[C@@H]2c2ccccc2)[C@@]12CO2; 0.485
CC(C)N1C(=O)C[C@@](C(=O)NCCN2CCOCC2)(c2ccc([N+](=O)[O-])cc2)[C@H]1c1ccc(CO)cc1; -1.03
C=C(CCCC)/C(=C/C[C@H](OC(=O)c1ccncc1)c1ccccc1OCCO)c1cc(C(=O)OC)ccc1OC; 0.273

composite z-score lookup needed for C[C@]1(C(=O)O)c2ccccc2C(=O)N(Cc2cc(F)cc(C(F)(F)F)c2)[C@H]1c1ccc(CO)cc1 , thanks.
-0.336

Any idea what composite z-score was measured for C=C(CCCC)C(=O)CC[C@H](OC(=O)c1ccccc1-c1ccccc1C(=O)O)c1ccc(OCCO)cc1 ?
0.248

---

Tested on: Wnt5a (protein binding on small-molecule microarray)
assay-method-text: small molecules binding Wnt5a protein – biophysical, small-molecule microarray, 635/667 nm fluorescence, primary screen (AID 1142);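 note: fluorescence read at 667 nm with signal to noise per printed feature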
assay-context: 635 nm fluorescence, higher = more signal
measurement-type: composite z-score

COC(=O)[C@@]1(Cc2ccccc2)[C@H]2c3cc(C(=O)N(C)C)n(Cc4ccc(S(C)(=O)=O)cc4)c3C[C@H]2CN1C(=O)c1ccccc1; 0.493

Consider the compound O=C1N(Cc2ccccc2)c2ccccc2C[C@@]12COC(c1ccc(OCCCO)cc1)=N2 and give its measured composite z-score.
0.82

Can you look up the measured composite z-score of CC1CC/C=C\[C@H]2OC34C=CCN(c5ccc6ccccc6c5)C(=O)[C@H]3N(C(C)CO)C(=O)[C@@H]4C2C(=O)O1 (some centres not stated) for me?
-0.786

---

target-or-test-system: Concanavalin-A (Canavalia ensiformis)
assay-method-text: compounds binding concanavalin A lectin – biochemical, small-molecule microarray, Alexa647 label, 635 nm, artefact control for SMM control protein annotation, primary screen (AID 1127);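 note: z combines 667 nm emission intensity with signal-to-noise across three replicate slides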
assay-context: ConA-A647 binding fluorescence, higher = more signal
Please enter T where composite z-score is greater than or equal to 0.8, and F where it is lower.

Threshold query (composite z-score >= 0.8) on COCCOC(=O)N1C(=O)[C@@]2(c3cc(C#CCC(C(=O)OC)C(=O)OC)ccc31)[C@H](C(=O)Nc1nc3ccccc3s1)[C@H]1C(=O)O[C@H](c3ccccc3)[C@H](c3ccccc3)N1[C@@H]2c1ccc(O)cc1
T

---

assay-method-text: probe aNOTCH2 binding on compound microarray – biochemical, small-molecule microarray, 635/667 nm fluorescence, primary screen (AID 1121);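 note: score merges feature fluorescence read at 667 nm with its signal to noise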
assay-context: higher = more signal
measurement-type: composite z-score
Reply: number alone, nothing else.

// solved cases for composite z-score follow
CC(C)C(O)C1C=CC2C(=O)NC(=O)C2N1Nc1ccccn1 (stereo not drawn); -0.0464
CCCN1C(=O)[C@]2(CCC(=O)OC(C)(C)C)N=C(c3ccc(OCCCO)cc3)O[C@@H]2c2ccccc21; -0.0732
O=C1OCCC=C[C@H]2OC34C=CCN(c5ccc6ccccc6c5)C(=O)[C@H]3N(CCO)C(=O)[C@@H]4C12 (stereo partly drawn); -0.445

So what does the record say about composite z-score for CC(=O)c1ccc(C(O)C2C=CC3C(=O)N(c4ccccc4)C(=O)C3N2Nc2ccc(C(C)C)cc2)cc1 (stereo not drawn) ?
0.216

I'd like to know its composite z-score. The compound in question is C[N+](C)(C)CCCCNC(=O)[C@H]1C[C@H]2C(=O)N[C@@H](Cc3ccccc3)C(=O)N2[C@H]1c1cccc(OCCO)c1
-0.1

Which composite z-score is reported for this compound? C=C(C)[C@@H]1CC=C(C(O)C2C=CC3C(=O)N(C)C(=O)C3N2Nc2ccc([N+](=O)[O-])cc2[N+](=O)[O-])CC1 (stereo partly drawn)
0.158

For the compound CC(C)C[C@@H]1NC(=O)[C@@H]2C[C@H](C(=O)NCCCCCCNC(=O)CS)[C@H](c3cccc(OCCO)c3)N2C1=O , what composite z-score is on record?
-0.123

Looking for the measured composite z-score of COC(=O)[C@@]1(Cc2ccc(OC)cc2)[C@H]2c3cc(C(=O)N(C)C)[nH]c3C[C@H]2CN1C(=O)c1ccccc1 , can you help?
0.013

---

Quick list: composite z-score per entry.
Tested on: Chordin-like protein 2 (CHRDL2)
assay-method-text: compounds binding chordin-like 2 – biochemical, small-molecule microarray, 635 nm fluorescence, primary screen (AID 1126);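 note: printed compound slides probed with Chrdl2 protein at 4 µg/mL for 1 h at 4 C; score merges 667 nm emission intensity with signal to noise over three replicate slides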
assay-context: fluorescence 635 nm, higher = more signal
# output: bare number, no unit

Here is how some molecules turned out for composite z-score.
COc1ccc([Si](C)(C)[C@@H]2[C@@H](CC(=O)N3CCC[C@H]3CO)O[C@]3(C(=O)N(Cc4cccc(N5CCCCC5=O)c4)c4ccccc43)[C@H]2C)cc1; 0.781
[N-]=[N+]=Nc1ccccc1[C@H]1OC(c2ccc(OCCCO)cc2)=N[C@@]1(Cc1ccccc1)C(=O)NCC(O)CO (stereo partly drawn); -0.832
CC(=O)c1ccc(C(O)C2C=CC3C(=O)N(c4ccccc4)C(=O)C3N2Nc2ccc(C(C)C)cc2)cc1 (stereo not drawn); -0.185
CCCC#C[Si](O[C@H](CC)c1cn(Cc2ccccc2)nn1)(C(C)C)C(C)C; 0.379
COC(=O)[C@@]1(Cc2ccc(F)cc2)[C@H]2c3cc(C(=O)N4CCCC4)n(Cc4ccccn4)c3C[C@H]2CN1C(=O)c1ccccc1; -0.22
C[N+](C)(C)CCCC[C@@H]1NC(=O)[C@@H]2C[C@H](C(=O)NCc3ccc(F)cc3)[C@H](c3ccc(O)cc3)N2C1=O; 0.189

Then this molecule:
composite z-score lookup needed for COC(=O)[C@@]1(Cc2ccc(OC)cc2)[C@H]2c3cc(C(=O)N4CCCC4)n(CCn4cc([N+](=O)[O-])nc4C)c3C[C@H]2CN1C(=O)c1ccccc1 , thanks.
0.406

---

System: Wnt5a (protein binding on small-molecule microarray)
assay-method-text: small molecules binding Wnt5a protein – biophysical, small-molecule microarray, 635/667 nm fluorescence, primary screen (AID 1142);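 note: fluorescence read at 667 nm with signal to noise per printed feature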
assay-context: 635 nm fluorescence, higher = more signal
Below is a list of entries, each paired with its recorded composite z-score value.

Example results:
O=C1O[C@H](Cc2ccccc2)[C@@H]2[C@H]3C=CCCC=C3CN2[C@H]1Cc1ccc(O)cc1; -0.311
O=C1c2ccccc2[C@@]2(Cc3ccccc3N(Cc3ccccc3)C2=O)[C@H](c2ccc(CO)cc2)N1Cc1ccccc1Cl; -0.131

Entry CCCC=C(CCC)[C@@H](NC(=O)OCC(C)C)c1ccc(C(=O)OC)cc1 , system Wnt5a (protein binding on small-molecule microarray): what composite z-score was measured?
-0.0326

Enter reported composite z-score observed with Wnt5a (protein binding on small-molecule microarray) for C[C@]1(C(=O)O)c2ccccc2C(=O)N(Cc2cc(F)cc(C(F)(F)F)c2)[C@H]1c1ccc(CO)cc1
-0.0056

So what composite z-score did CC(C)N1C(=O)c2ccccc2[C@](C)(C(=O)NCC(F)(F)F)[C@@H]1c1ccc(CO)cc1 get with Wnt5a (protein binding on small-molecule microarray)?
-0.218

Request - read-out composite z-score | tested on Wnt5a (protein binding on small-molecule microarray) | compound COC(=O)[C@H](Cc1ccccc1)N1CC2=CCCC=C[C@@H]2[C@H]1[C@H](O)Cc1ccccc1
-0.0279

State its composite z-score on Wnt5a (protein binding on small-molecule microarray): CC1CC/C=C\[C@H]2OC34C=CCN(Cc5ccccc5)C(=O)[C@H]3N(CCCCCCO)C(=O)[C@@H]4C2C(=O)O1 (stereo partly drawn)
-0.523

Could you share what composite z-score was measured for CC(C)c1nc2cc(Br)ccc2c(=O)o1 , tested on Wnt5a (protein binding on small-molecule microarray)?
0.432

---

assay-method-text: compound effects on hepatocellular carcinoma cell viability – HepG2, calcein-AM fluorescence, 48 h, basal, profiling panel (AID 1164); note: test concentration not given here
assay-context: higher = more signal
measurement-type: z-score
The answer should be a number; do not append a unit.

// known answers, use as guide
COc1ccc(C(=O)Nc2cccc(CN3C(=O)[C@]4(O[C@H](CC(=O)N5Cc6ccccc6C[C@H]5CO)[C@@H]([Si](C)(C)c5ccc(OC)cc5)[C@@H]4C)c4ccccc43)c2)cc1; -1.05
COC(=O)[C@@]1(Cc2ccccc2)[C@H]2c3cc(C(=O)N(C)C)n(Cc4ccc(C(F)(F)F)nc4)c3C[C@H]2CN1C(=O)c1ccccc1; -0.628
C=CC[C@]1(C(=O)NCC(O)CO)COC(c2ccc(OCCCO)cc2)=N1 (some centres not stated); -0.323

Reported z-score, compound CCOC(=O)C[C@H]1[C@H](OC(=O)Cc2ccc3c(c2)OCO3)[C@@H](NC(=O)Cc2ccc(OC)cc2)c2cc(OCCCO)ccc2N1C(=O)Cc1ccc(OC)cc1 : ____
1.57

Bench note: what z-score did C=C(C)[C@@H]1CC=C(C(O)C2C=CC3C(=O)N(C)C(=O)C3N2Nc2ccc([N+](=O)[O-])cc2[N+](=O)[O-])CC1 (some centres not stated) show?
-0.303

Reported z-score for COc1ccc([Si](C)(C)[C@@H]2[C@@H](CC(=O)N3Cc4ccccc4C[C@H]3CO)O[C@]3(C(=O)N(Cc4ccc(N5CCOC5=O)cc4)c4ccccc43)[C@H]2C)cc1 : what is it?
0.115

Look at this compound and give its reported z-score. C=CCC(OC(C)=O)[C@@H]1[C@@H](N(Cc2cccc3ccccc23)C(=O)Cc2ccc(OC)cc2)c2cc(OCCCO)ccc2N1C(=O)Cc1ccc2ccccc2c1 (some centres not stated)
-0.472
